# Protocol Summary: Clearance in male Sprague-Dawley rat at 1 mg/kg, iv measured after 24 hrs by LC-MS analysis
# Assay type: ADME, organism-based
# Condition Set: in vivo
Reported Endpoint: clearance (mL/min/kg)

P = COc1cc(-c2cc(F)cc(C(C)C)c2CC(=O)NS(=O)(=O)c2cnn(C3CC3)c2)ccn1
Q = CC(C)c1cc(F)cc2c1CC(=O)NS(=O)(=O)c1cnn(c1)C(C)(C)COc1cc-2ccn1
Task: Input pair: P , Q . Output: entry with lower clearance. Return value: the label identifying the chosen record.
Result: Q
(Q: 3.5 mL/min/kg, P: 11 mL/min/kg)

* * *

# Protocol Summary: Metabolic stability in pooled rat liver microsomes assessed as intrinsic clearance at 1 uM measured upto 45 mins in presence of NADPH by UPLC-MS/MS analysis
# Assay type: ADME, Microsome
# Condition Set: read-out: CLH
Reported Endpoint: microsomal CLint at 1 µM

Look over these answered cases.
CC(C)c1c(F)ccc2c1CC(=O)NS(=O)(=O)c1cn(nc1F)C(C)(C)COc1cc-2ccn1	3.7 µL/min/mg
CC(C)c1cc(F)cc2c1CC(=O)NS(=O)(=O)c1cnn(c1)C(C)(C)COc1cc-2ccn1	< 15.4 µL/min/mg

Switching to the query record.
Task: Return the recorded microsomal CLint at 1 µM value; entry: `COc1cc(-c2cc(F)cc(C(C)C)c2CC(=O)NS(=O)(=O)c2cnn(C3CC3)c2)ccn1`
Result: < 15.4 µL/min/mg
